Attribution: patent US8217000B2

test_details: Plasma pharmacokinetics of CR665 after single IV infusion in human subjects
study_conditions: male, human, plasma, iv, 0.48 mg/kg, t1/2, males, 1 hour IV infusion, geometric mean
Structures can show the parent of a compound that is named as a salt. Non-standard residues stand in square brackets, D forms with d. Residues, ends and D or L forms follow the SMILES beside them. *: point of attachment. NH(4-picolyl) = c1cc(CN*)ccn1; dNle = CCCC[C@@H](N)C(=O)O
measured_parameter: half-life (h)
One number for each entry, in h.

Problem: Identify half-life associated with the compound CCCC[C@@H](NC(=O)[C@@H](Cc1ccccc1)NC(=O)[C@H](N)Cc1ccccc1)C(=O)N[C@H](CCCNC(=N)N)C(=O)NCc1ccncc1 [CR665, acetate salt] (H-[dF][dF][dNle][dR]-{NH(4-picolyl)})
Result: 1.87

---

test_details: Plasma pharmacokinetics of CR665 after single IV infusion in human subjects
study_conditions: female, human, plasma, iv, 0.06 mg/kg, AUC0-∞, females, 5-minute IV infusion, geometric mean
Counter-ions that a name gives are not always drawn. Non-standard residues stand in square brackets, D forms with d. Residues, ends and D or L forms follow the SMILES beside them. *: point of attachment. NH(4-picolyl) = c1cc(CN*)ccn1; dNle = CCCC[C@@H](N)C(=O)O
measured_parameter: AUC(0-inf) (ng·h/mL)
Answers are plain numbers, in ng·h/mL.

Problem: Identify AUC(0-inf) associated with the compound CCCC[C@@H](NC(=O)[C@@H](Cc1ccccc1)NC(=O)[C@H](N)Cc1ccccc1)C(=O)N[C@H](CCCNC(=N)N)C(=O)NCc1ccncc1 [CR665, acetate salt] (H-[dF][dF][dNle][dR]-{NH(4-picolyl)})
Result: 122

---

test_details: Plasma pharmacokinetics of CR665 after single IV infusion in human subjects
study_conditions: male, human, plasma, iv, 0.015 mg/kg, MRTint, males, 1 hour IV infusion, geometric mean
Protocol: This clinical study was conducted as a double blind, placebo controlled, ascending single intravenous (IV) dose, sequential group study. […] Plasma and urine samples for the analysis of CR665 and N oxide metabolite were prepared by solid phase extraction. The centrifuged eluates were quantified by liquid chromatography with tandem mass spectrometric detection (LC MS/MS). The lower limit of quantification was 1 ng/mL. […]
Counter-ions that a name gives are not always drawn. Non-standard residues stand in square brackets, D forms with d. Residues, ends and D or L forms follow the SMILES beside them. *: point of attachment. NH(4-picolyl) = c1cc(CN*)ccn1; dNle = CCCC[C@@H](N)C(=O)O
measured_parameter: MRT (min)
Numbers only, in min.

Problem: Identify MRT associated with the compound CCCC[C@@H](NC(=O)[C@@H](Cc1ccccc1)NC(=O)[C@H](N)Cc1ccccc1)C(=O)N[C@H](CCCNC(=N)N)C(=O)NCc1ccncc1 [CR665, acetate salt] (H-[dF][dF][dNle][dR]-{NH(4-picolyl)})
Result: 30.7

---

test_details: Plasma pharmacokinetics of CR665 after single IV infusion in human subjects
study_conditions: male, human, plasma, iv, 0.015 mg/kg, Cmax, males, 1 hour IV infusion, geometric mean
Counter-ions that a name gives are not always drawn. Non-standard residues stand in square brackets, D forms with d. Residues, ends and D or L forms follow the SMILES beside them. *: point of attachment. NH(4-picolyl) = c1cc(CN*)ccn1; dNle = CCCC[C@@H](N)C(=O)O
measured_parameter: Cmax
Give your result as the value with the unit written after it.

Problem: Identify Cmax associated with the molecule CCCC[C@@H](NC(=O)[C@@H](Cc1ccccc1)NC(=O)[C@H](N)Cc1ccccc1)C(=O)N[C@H](CCCNC(=N)N)C(=O)NCc1ccncc1 [CR665, acetate salt] (H-[dF][dF][dNle][dR]-{NH(4-picolyl)})
Result: 27.8 ng/mL

---

test_details: Plasma pharmacokinetics of CR665 after single IV infusion in human subjects
study_conditions: male, human, plasma, iv, 0.06 mg/kg, AUC0-t, males, 5-minute IV infusion, geometric mean
Structures can show the parent of a compound that is named as a salt. Non-standard residues stand in square brackets, D forms with d. Residues, ends and D or L forms follow the SMILES beside them. *: point of attachment. NH(4-picolyl) = c1cc(CN*)ccn1; dNle = CCCC[C@@H](N)C(=O)O
measured_parameter: AUC(0-t) (ng·h/mL)
One number for each entry, in ng·h/mL.

Problem: Identify AUC(0-t) associated with the molecule CCCC[C@@H](NC(=O)[C@@H](Cc1ccccc1)NC(=O)[C@H](N)Cc1ccccc1)C(=O)N[C@H](CCCNC(=N)N)C(=O)NCc1ccncc1 [CR665, acetate salt] (H-[dF][dF][dNle][dR]-{NH(4-picolyl)})
Result: 139

---

test_details: Plasma pharmacokinetics of CR665 after single IV infusion in human subjects
study_conditions: male, human, plasma, iv, 0.09 mg/kg, AUC0-t, males, 5-minute IV infusion, geometric mean
Structures can show the parent of a compound that is named as a salt. Non-standard residues stand in square brackets, D forms with d. Residues, ends and D or L forms follow the SMILES beside them. *: point of attachment. NH(4-picolyl) = c1cc(CN*)ccn1; dNle = CCCC[C@@H](N)C(=O)O
measured_parameter: AUC(0-t) (ng·h/mL)
Answers are plain numbers, in ng·h/mL.

Problem: Identify AUC(0-t) associated with the compound CCCC[C@@H](NC(=O)[C@@H](Cc1ccccc1)NC(=O)[C@H](N)Cc1ccccc1)C(=O)N[C@H](CCCNC(=N)N)C(=O)NCc1ccncc1 [CR665, acetate salt] (H-[dF][dF][dNle][dR]-{NH(4-picolyl)})
Result: 209

---

test_details: Plasma pharmacokinetics of CR665 after single IV infusion in human subjects
study_conditions: male, human, plasma, iv, 0.03 mg/kg, MRTint, males, 5-minute IV infusion, geometric mean
Where a name gives a salt, the structure may show the parent alone. Non-standard residues stand in square brackets, D forms with d. Residues, ends and D or L forms follow the SMILES beside them. *: point of attachment. NH(4-picolyl) = c1cc(CN*)ccn1; dNle = CCCC[C@@H](N)C(=O)O
measured_parameter: MRT
Give your result as the value with the unit written after it.

Problem: Identify MRT associated with the compound CCCC[C@@H](NC(=O)[C@@H](Cc1ccccc1)NC(=O)[C@H](N)Cc1ccccc1)C(=O)N[C@H](CCCNC(=N)N)C(=O)NCc1ccncc1 [CR665, acetate salt] (H-[dF][dF][dNle][dR]-{NH(4-picolyl)})
Result: 36.9 min

---

test_details: Plasma pharmacokinetics of CR665 after single IV infusion in human subjects
study_conditions: male, human, plasma, iv, 0.12 mg/kg, AUC0-t, males, 1 hour IV infusion, geometric mean
Procedure: This clinical study was conducted as a double blind, placebo controlled, ascending single intravenous (IV) dose, sequential group study. […] Plasma and urine samples for the analysis of CR665 and N oxide metabolite were prepared by solid phase extraction. The centrifuged eluates were quantified by liquid chromatography with tandem mass spectrometric detection (LC MS/MS). The lower limit of quantification was 1 ng/mL. […]
Structures can show the parent of a compound that is named as a salt. Non-standard residues stand in square brackets, D forms with d. Residues, ends and D or L forms follow the SMILES beside them. *: point of attachment. NH(4-picolyl) = c1cc(CN*)ccn1; dNle = CCCC[C@@H](N)C(=O)O
measured_parameter: AUC(0-t) (ng·h/mL)
Give bare numbers, in ng·h/mL.

Problem: Identify AUC(0-t) associated with the compound CCCC[C@@H](NC(=O)[C@@H](Cc1ccccc1)NC(=O)[C@H](N)Cc1ccccc1)C(=O)N[C@H](CCCNC(=N)N)C(=O)NCc1ccncc1 [CR665, acetate salt] (H-[dF][dF][dNle][dR]-{NH(4-picolyl)})
Result: 267

---

test_details: Plasma pharmacokinetics of CR665 after single IV infusion in human subjects
study_conditions: male, human, plasma, iv, 0.12 mg/kg, Cmax, males, 1 hour IV infusion, geometric mean
Where a name gives a salt, the structure may show the parent alone. Non-standard residues stand in square brackets, D forms with d. Residues, ends and D or L forms follow the SMILES beside them. *: point of attachment. NH(4-picolyl) = c1cc(CN*)ccn1; dNle = CCCC[C@@H](N)C(=O)O
measured_parameter: Cmax (ng/mL)
Numbers only, in ng/mL.

Problem: Identify Cmax associated with the molecule CCCC[C@@H](NC(=O)[C@@H](Cc1ccccc1)NC(=O)[C@H](N)Cc1ccccc1)C(=O)N[C@H](CCCNC(=N)N)C(=O)NCc1ccncc1 [CR665, acetate salt] (H-[dF][dF][dNle][dR]-{NH(4-picolyl)})
Result: 231

---

test_details: Plasma pharmacokinetics of CR665 after single IV infusion in human subjects
study_conditions: human, plasma, intravenous, Apparent elimination half life, individual subjects, males, 0.12 to 0.48 mg/kg, 1 hour infusion
Structures can show the parent of a compound that is named as a salt. Non-standard residues stand in square brackets, D forms with d. Residues, ends and D or L forms follow the SMILES beside them. *: point of attachment. NH(4-picolyl) = c1cc(CN*)ccn1; dNle = CCCC[C@@H](N)C(=O)O
measured_parameter: half-life

Problem: Identify half-life associated with the compound CCCC[C@@H](NC(=O)[C@@H](Cc1ccccc1)NC(=O)[C@H](N)Cc1ccccc1)C(=O)N[C@H](CCCNC(=N)N)C(=O)NCc1ccncc1 [CR665, acetate salt] (H-[dF][dF][dNle][dR]-{NH(4-picolyl)})
Result: 1.2 to 3 h
